B1: CPEB3 Ribozyme (parent)
chain: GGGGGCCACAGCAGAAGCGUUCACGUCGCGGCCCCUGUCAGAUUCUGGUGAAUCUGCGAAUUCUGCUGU

Variants of: B1
Assay: self-cleavage, relative activity (ratio to wild type); higher = more cleavage; co-transcriptional
Assay Readout: self-cleavage
Give the figure only, with no unit attached.

Ask: Please list self-cleavage recorded for the variant C27G A42U
Result: 0.136

Ask: Please list self-cleavage recorded for the variant G3C U64G
Result: 0.0913

Ask: Please list self-cleavage recorded for the variant A15U C33G
Result: 0.294

Ask: Please list self-cleavage recorded for the variant G31A C34G
Result: 0.262

Ask: Please list self-cleavage recorded for the variant A42U G56C
Result: 0.326

Ask: Please list self-cleavage recorded for the variant A52G G68U
Result: 0.988

Ask: Please list self-cleavage recorded for the variant C45G A52G
Result: 0.989

Ask: Please list self-cleavage recorded for the variant G5U C54A
Result: 0.104

Ask: Please list self-cleavage recorded for the variant C27G A40G
Result: 0.243

Ask: Please list self-cleavage recorded for the variant C9U G30C
Result: 0.981

Ask: Please list self-cleavage recorded for the variant G5A A23C
Result: 0.766

Ask: Please list self-cleavage recorded for the variant C39U U43G
Result: 0.405

Ask: Please list self-cleavage recorded for the variant G37A A59U
Result: 0.215

Ask: Please list self-cleavage recorded for the variant A16U C27A
Result: 0.205

Ask: Please list self-cleavage recorded for the variant A13G U67G
Result: 0.897

Ask: Please list self-cleavage recorded for the variant C32U A60C
Result: 0.363

Ask: Please list self-cleavage recorded for the variant G14U G28C
Result: 0.159

Ask: Please list self-cleavage recorded for the variant U21G C34G
Result: 0.193

Ask: Please list self-cleavage recorded for the variant A40U C54A
Result: 0.435

Ask: Please list self-cleavage recorded for the variant "U64A"
Result: 0.963

Ask: Please list self-cleavage recorded for the variant G41C U61A
Result: 0.484

Ask: Please list self-cleavage recorded for the variant G4A G17U
Result: 0.145

Ask: Please list self-cleavage recorded for the variant G58U U61A
Result: 0.929

Ask: Please list self-cleavage recorded for the variant U49A U61C
Result: 0.91

Ask: Please list self-cleavage recorded for the variant C22U A23C
Result: 0.276

Ask: Please list self-cleavage recorded for the variant C24A U49C
Result: 0.74

Ask: Please list self-cleavage recorded for the variant G30A C33G
Result: 0.227

Ask: Please list self-cleavage recorded for the variant U36G U64A
Result: 0.254

Ask: Please list self-cleavage recorded for the variant C6U U49G
Result: 0.956

Ask: Please list self-cleavage recorded for the variant C27G G28A
Result: 0.147

Ask: Please list self-cleavage recorded for the variant U44G G48U
Result: 0.986

Ask: Please list self-cleavage recorded for the variant C29G U46C
Result: 0.473

Ask: Please list self-cleavage recorded for the variant G19A A51G
Result: 0.172

Ask: Please list self-cleavage recorded for the variant G2U A60G
Result: 0.0636

These measurements were taken from the RNAGym collection of RNA variant scans (doi:10.7554/elife.80360).
